TEST SYSTEM: HER2 intracellular domain (HER2 kinase) (Homo sapiens, UniProt P04626)
Construct: made in house; host or cells: SF-21 insect cells infected with recombinant baculovirus BAC-HER2
Sequence (P04626 676-1255): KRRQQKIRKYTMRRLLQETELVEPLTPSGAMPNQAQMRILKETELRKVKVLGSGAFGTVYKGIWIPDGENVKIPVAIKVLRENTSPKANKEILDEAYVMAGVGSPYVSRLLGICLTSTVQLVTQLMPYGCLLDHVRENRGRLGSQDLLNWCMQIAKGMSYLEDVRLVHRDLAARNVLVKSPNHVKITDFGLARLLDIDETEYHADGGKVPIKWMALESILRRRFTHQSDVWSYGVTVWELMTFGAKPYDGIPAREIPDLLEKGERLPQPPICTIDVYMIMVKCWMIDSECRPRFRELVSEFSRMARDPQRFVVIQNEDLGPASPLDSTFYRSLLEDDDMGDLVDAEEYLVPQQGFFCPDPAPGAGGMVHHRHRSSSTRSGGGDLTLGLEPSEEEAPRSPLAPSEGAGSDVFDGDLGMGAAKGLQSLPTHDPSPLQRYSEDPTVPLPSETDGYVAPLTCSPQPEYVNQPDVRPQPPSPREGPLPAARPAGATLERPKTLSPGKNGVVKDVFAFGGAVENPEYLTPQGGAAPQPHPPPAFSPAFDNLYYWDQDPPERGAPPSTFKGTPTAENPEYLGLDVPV
ASSAY NOTES: Determination of HER2 kinase inhibitory activity
Format: biochemical
CONDITION INFO: compound at 1.0 μM, poly-Glu:Tyr (4:1) substrate, [γ-32P]ATP, read-out: inhibitory rate (%) at 1.0 μM
Description: Human HER2 gene was cloned by RT-PCR using total RNA prepared from MCF7 cells as a template. […] HER2 kinase reaction was performed using a 96 well plate. […] The radioactivity was measured using TopCount (PerkinElmer). HER2 kinase inhibitory rate (%) of the test compound was calculated by the following formula: […]
Structures can show the parent of a compound that is named as a salt.

>  <MOLECULE>
O=C1Cc2c(cccc2Oc2ccc(Nc3ncnc4ccn(CCO)c34)cc2Cl)N1 [Example 28]

>  <TEST SYSTEM>
HER2 intracellular domain (HER2 kinase) (Homo sapiens, UniProt P04626)

>  <inhibition at 1 µM [%]>
100

$$$$
>  <MOLECULE>
CC(C)(CO)C(=O)NCCn1ccc2ncnc(Nc3ccc(Oc4cccc5sccc45)c(Cl)c3)c21 [Example 127, tosylate]

>  <TEST SYSTEM>
HER2 intracellular domain (HER2 kinase) (Homo sapiens, UniProt P04626)

>  <inhibition at 1 µM [%]>
99

$$$$
>  <MOLECULE>
CC(C)(C)NC(=O)c1cccc(Oc2ccc(Nc3ncnc4ccn(CCO)c34)cc2Cl)n1 [Example 29]

>  <TEST SYSTEM>
HER2 intracellular domain (HER2 kinase) (Homo sapiens, UniProt P04626)

>  <inhibition at 1 µM [%]>
100

$$$$
>  <MOLECULE>
CN1C(=O)Cc2c(Oc3ccc(Nc4ncnc5cc(Cl)n(CCO)c45)cc3Cl)cccc21 [Example 170]

>  <TEST SYSTEM>
HER2 intracellular domain (HER2 kinase) (Homo sapiens, UniProt P04626)

>  <inhibition at 1 µM [%]>
97

$$$$
>  <MOLECULE>
CC(C)(CO)C(=O)NCCn1ccc2ncnc(Nc3ccc(Oc4ccn5ccnc5c4)c(Cl)c3)c21 [Example 164]

>  <TEST SYSTEM>
HER2 intracellular domain (HER2 kinase) (Homo sapiens, UniProt P04626)

>  <inhibition at 1 µM [%]>
100

$$$$
>  <MOLECULE>
OCCn1ccc2ncnc(Nc3ccc(Oc4cccc5[nH]ncc45)c(Cl)c3)c21 [Example 95]

>  <TEST SYSTEM>
HER2 intracellular domain (HER2 kinase) (Homo sapiens, UniProt P04626)

>  <inhibition at 1 µM [%]>
100

$$$$
>  <MOLECULE>
CC(C)(C)NC(=O)c1cncc(Oc2ccc(Nc3ncnc4ccn(CCO)c34)cc2Cl)c1 [Example 26]

>  <TEST SYSTEM>
HER2 intracellular domain (HER2 kinase) (Homo sapiens, UniProt P04626)

>  <inhibition at 1 µM [%]>
100

$$$$
>  <MOLECULE>
OCCn1ccc2ncnc(Nc3ccc(Oc4cccc5[nH]ccc45)c(Cl)c3)c21 [Example 10]

>  <TEST SYSTEM>
HER2 intracellular domain (HER2 kinase) (Homo sapiens, UniProt P04626)

>  <inhibition at 1 µM [%]>
99

$$$$

----------
System: human breast cancer cell BT-474
ASSAY NOTES: Inhibitory action on breast cancer cell BT-474 proliferation in vitro
Format: cell-based
CONDITION INFO: 120 h, BT-474 cells, cultured for 5 days with compound, SRB protein content
pIC50: −log10 of the molar value. Counter-ions that a name gives are not always drawn.
ASSAY ENDPOINT: pIC50

>  <COMPOUND>
CC(C)(CO)C(=O)NCCn1ccc2ncnc(Nc3ccc(Oc4cccc5sccc45)c(Cl)c3)c21

>  <ASSAY ENDPOINT>
pIC50

>  <RESULT>
> 7.00

$$$$
>  <COMPOUND>
CC(C)(O)CC(=O)NCCn1ccc2ncnc(Nc3ccc(Oc4ccc5ccnn5c4)c(Cl)c3)c21 [Example 147, hydrochloride]

>  <ASSAY ENDPOINT>
pIC50

>  <RESULT>
> 7.00

$$$$
>  <COMPOUND>
OCCn1ccc2ncnc(Nc3ccc(Oc4cccc5[nH]ccc45)c(Cl)c3)c21

>  <ASSAY ENDPOINT>
pIC50

>  <RESULT>
> 7.00

$$$$

----------
TEST SYSTEM: EGFR intracellular domain (EGFR kinase) (Homo sapiens, UniProt P00533)
Construct: made in house; host or cells: SF-21 insect cells infected with recombinant baculovirus BAC-EGFR
Sequence (P00533 669-1210): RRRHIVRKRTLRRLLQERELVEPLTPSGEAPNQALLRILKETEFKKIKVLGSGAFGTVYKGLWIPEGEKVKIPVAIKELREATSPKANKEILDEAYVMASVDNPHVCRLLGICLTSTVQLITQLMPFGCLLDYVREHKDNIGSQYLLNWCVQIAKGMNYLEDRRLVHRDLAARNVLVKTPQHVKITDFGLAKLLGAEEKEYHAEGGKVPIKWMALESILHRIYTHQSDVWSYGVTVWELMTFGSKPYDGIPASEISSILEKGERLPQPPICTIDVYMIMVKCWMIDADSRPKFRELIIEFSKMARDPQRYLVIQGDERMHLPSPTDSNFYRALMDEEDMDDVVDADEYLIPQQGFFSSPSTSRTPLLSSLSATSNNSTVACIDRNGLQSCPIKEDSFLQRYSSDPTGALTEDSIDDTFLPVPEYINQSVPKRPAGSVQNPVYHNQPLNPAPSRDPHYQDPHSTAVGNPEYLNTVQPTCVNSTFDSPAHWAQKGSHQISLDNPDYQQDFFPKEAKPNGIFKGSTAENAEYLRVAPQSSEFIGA
ASSAY NOTES: Determination of EGFR kinase inhibitory activity
Type: biochemical
CONDITION INFO: compound at 1.0 μM, poly-Glu:Tyr (4:1) substrate, [γ-32P]ATP, read-out: inhibitory rate (%) at 1.0 μM
Overview of reported inhibition at 1 µM across a group of compounds:
ASSAY ENDPOINT: inhibition at 1 µM (%)

>  <COMPOUND>
CN1C(=O)Cc2c(Oc3ccc(Nc4ncnc5ccn(CCO)c45)cc3Cl)cccc21 [Example 8]

>  <ASSAY ENDPOINT>
inhibition at 1 µM

>  <RESULT NUMBER>
100

$$$$
>  <COMPOUND>
CS(=O)(=O)CC(=O)NCCn1ccc2ncnc(Nc3ccc(Oc4cccc5c4CC(=O)N5)c(Cl)c3)c21 [Example 6]

>  <ASSAY ENDPOINT>
inhibition at 1 µM

>  <RESULT NUMBER>
100

$$$$
>  <COMPOUND>
CS(=O)(=O)CC(=O)NCCn1ccc2ncnc(Nc3ccc(Oc4ccc5ccsc5c4)c(Cl)c3)c21 [Example 60]

>  <ASSAY ENDPOINT>
inhibition at 1 µM

>  <RESULT NUMBER>
99

$$$$
>  <COMPOUND>
Cn1ccc2ncnc(Nc3ccc(Oc4cccc5[nH]ccc45)c(Cl)c3)c21 [Example 22]

>  <ASSAY ENDPOINT>
inhibition at 1 µM

>  <RESULT NUMBER>
98

$$$$

----------
Overview of reported inhibition at 1 µM across a group of molecules:
TEST SYSTEM: HER2 intracellular domain (HER2 kinase) (Homo sapiens, UniProt P04626)
Construct: made in house; host or cells: SF-21 insect cells infected with recombinant baculovirus BAC-HER2
ASSAY NOTES: Determination of HER2 kinase inhibitory activity
Assay type: biochemical
CONDITION INFO: compound at 1.0 μM, poly-Glu:Tyr (4:1) substrate, [γ-32P]ATP, read-out: inhibitory rate (%) at 1.0 μM
ASSAY ENDPOINT: inhibition at 1 µM (%)

>  <MOLECULE>
OCCn1ccc2ncnc(Nc3ccc(Oc4cccc5sccc45)c(Cl)c3)c21

>  <READING UNIT>
%

>  <RESULT NUMBER>
99

$$$$
>  <MOLECULE>
OCCOCCn1ccc2ncnc(Nc3ccc(Oc4cccc5[nH]ccc45)c(Cl)c3)c21

>  <READING UNIT>
%

>  <RESULT NUMBER>
100

$$$$
>  <MOLECULE>
CC(C)(CO)C(=O)NCCn1ccc2ncnc(Nc3ccc(Oc4ccc5ccnn5c4)c(Cl)c3)c21 [Example 159, methanesulfonate]

>  <READING UNIT>
%

>  <RESULT NUMBER>
100

$$$$

----------
Overview of reported inhibition at 1 µM across a group of molecules:
TEST SYSTEM: EGFR intracellular domain (EGFR kinase) (Homo sapiens)
Construct: made in house; host or cells: SF-21 insect cells infected with recombinant baculovirus BAC-EGFR
ASSAY NOTES: Determination of EGFR kinase inhibitory activity
Format: biochemical
CONDITION INFO: compound at 1.0 μM, poly-Glu:Tyr (4:1) substrate, [γ-32P]ATP, read-out: inhibitory rate (%) at 1.0 μM

>  <COMPOUND>
CC(C)(CO)C(=O)NCCn1ccc2ncnc(Nc3ccc(Oc4ccc5ccsc5c4)c(Cl)c3)c21

>  <inhibition at 1 µM>
98%

$$$$
>  <COMPOUND>
OCCOCCn1ccc2ncnc(Nc3ccc(Oc4cccc5[nH]ccc45)c(Cl)c3)c21

>  <inhibition at 1 µM>
99%

$$$$
>  <COMPOUND>
CC(=O)NCCn1ccc2ncnc(Nc3ccc(Oc4cccc5sccc45)c(Cl)c3)c21

>  <inhibition at 1 µM>
98%

$$$$
